src = patent US20250230248A1

molecular target: T1, cMET extracellular domain (ECD) (UniProt P08581 25-932, limits assumed); test: blocking of HGF binding to cMET ECD, ELISA, FIG. 3F
T1 construct: extracellular domain; Probably the same reagent as recombinant human cMET; also called cMET ECD
T1 sequence (P08581 25-932 limits assumed): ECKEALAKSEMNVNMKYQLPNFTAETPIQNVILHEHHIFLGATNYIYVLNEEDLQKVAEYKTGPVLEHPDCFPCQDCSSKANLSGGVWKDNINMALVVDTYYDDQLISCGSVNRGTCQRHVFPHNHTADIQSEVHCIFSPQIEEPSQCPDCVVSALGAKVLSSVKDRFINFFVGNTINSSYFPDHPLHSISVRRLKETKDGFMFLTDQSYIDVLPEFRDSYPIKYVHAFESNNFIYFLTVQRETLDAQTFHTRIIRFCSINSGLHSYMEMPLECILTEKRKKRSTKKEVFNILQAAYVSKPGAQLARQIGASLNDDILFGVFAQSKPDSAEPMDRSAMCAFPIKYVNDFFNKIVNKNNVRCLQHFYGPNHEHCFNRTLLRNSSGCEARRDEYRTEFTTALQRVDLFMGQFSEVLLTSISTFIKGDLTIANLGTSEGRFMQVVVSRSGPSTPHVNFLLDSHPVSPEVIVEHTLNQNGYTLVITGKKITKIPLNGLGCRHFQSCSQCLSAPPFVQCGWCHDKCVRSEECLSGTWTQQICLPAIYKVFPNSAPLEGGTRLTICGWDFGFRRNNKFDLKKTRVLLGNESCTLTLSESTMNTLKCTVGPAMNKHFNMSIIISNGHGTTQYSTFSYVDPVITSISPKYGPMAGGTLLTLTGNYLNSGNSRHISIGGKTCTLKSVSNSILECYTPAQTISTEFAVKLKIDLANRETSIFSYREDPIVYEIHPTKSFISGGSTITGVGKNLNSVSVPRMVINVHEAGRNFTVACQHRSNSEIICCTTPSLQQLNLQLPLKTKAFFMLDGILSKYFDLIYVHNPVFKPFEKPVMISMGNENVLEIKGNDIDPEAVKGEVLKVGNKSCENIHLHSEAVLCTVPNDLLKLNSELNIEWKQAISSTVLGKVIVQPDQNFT
Outcome Measure: EC50

{"columns": ["Binder", "EC50"],
 "data": [
  ["EV1 (antibody, V domains shown, anti-cMET mAb hit; also called cMET EVH1 / cMET EVL1) VH: QVQLVQSGAEVKKPGASVKVSCKASGYTFTDYYMHWVRQAPGQGLEWMGRVNPNRGGTTYAQKFQGRVTMTTDTSISTAYMELSRLRSDDTAVYYCARANWLDYWGQGTTVTVSS VL: DIQMTQSPSSLSASVGDRVTITCRVSQSVSSIYLHWYQQKPGKAPKLLIYSTSNLQSGVPSRFSGSGSGTDFTLTISSLQPEDFATYYCQVYSGYPLTFGGGTKVEIK", "~0.093 µg/mL"],
  ["TV4 (antibody, V domains shown, anti-cMET mAb hit; also called cMET TVH2 / cMET TVL2) VH: QVQLQESGPGLVKPSGTLSLTCAVSGYIFTAYTMHWVRQPPGKGLEWIGGIKPNNGLANYNPSLKSRATLSVDKSKNQASMKLSSVTAADTAVYYCARSEITTEFDYWGQGTLVTVSS VL: DIQMTQSPSSLSASVGDRVTITCRASESVDSYANSFMHWYQQKPGKAPKLLIYRASNLESGVPSRFSGSGSGTDFTLTISSLQPEDFATYYCQQSKEDPLTFGGGTKVEIK", "~0.108 µg/mL"],
  ["Onartuzumab (antibody, V domains shown, also called cMET OVH0 / cMET OVL0) VH: EVQLVESGGGLVQPGGSLRLSCAASGYTFTSYWLHWVRQAPGKGLEWVGMIDPSNSDTRFNPNFKDRFTISADTSKNTAYLQMNSLRAEDTAVYYCATYRSYVTPLDYWGQGTLVTVSS VL: DIQMTQSPSSLSASVGDRVTITCKSSQSLLYTSSQKNYLAWYQQKPGKAPKLLIYWASTRESGVPSRFSGSGSGTDFTLTISSLQPEDFATYYCQQYYAYPWTFGQGTKVEIK", "~0.093 µg/mL"]
]}

Now for another entry.
Recorded result, TV1 (antibody, V domains shown, anti-cMET mAb hit; also called cMET TVH1 / cMET TVL0) VH: QVQLVQSGAEVKKPGSSVKVSCKASGYIFTAYTMHWVRQAPGQGLEWMGGIKPNNGLANYAQKFQGRVTITADESTSTAYMELSSLRSEDTAVYYCARSEITTEFDYWGQGTLVTVSS VL: DIVMTQSPDSLAVSLGERATINCKSSESVDSYANSFLHWYQQKPGQPPKLLIYRASTRESGVPDRFSGSGSGTDFTLTISSLQAEDVAVYYCQQSKEDPLTFGGGTKVEIK , EC50: ~0.122 µg/mL
